protocol details: NCI Yeast Anticancer Drug Screen. Data for the mec2-1 strain (AID 157)
test parameters: S. cerevisiae mec2-1 strain; at 50.0 µM unless noted
The panel holds about 79,000 compounds, 15% with a hit somewhere; the sample as a whole holds those more often. Active and inactive are the calls of the source. No stated cut-off is given here; in the data, active means growth inhibition above about 70%; inactive means the rest.
Labels: class 1 = active, class 0 = inactive

{"molecule": "N#CCN(CC#N)C1CC=CCC1N(CC#N)CC#N (configuration not stated)", "classification": "class 0"}
{"molecule": "Cc1ccc([N+](=O)[O-])cc1NC(=O)Oc1ccc(Cl)cc1Cl", "classification": "class 0"}
{"molecule": "CCN(CC)c1ccc(N=Nc2ccc(-c3nc4cccnc4o3)cc2)cc1", "classification": "class 0"}
{"molecule": "NC(=S)c1ccc2ccccc2c1", "classification": "class 0"}
{"molecule": "COc1ccccc1CN1CCCN(Cc2ccccc2OC)C1c1cccc(F)c1", "classification": "class 0"}
{"molecule": "COc1ccc2c(c1[N+](=O)[O-])CC[C@@H]1[C@@H]2CC[C@]2(C)C(=O)CC[C@@H]12", "classification": "class 0"}
{"molecule": "CC(=O)OCC1OC(n2c(-c3ccccc3)c(N=Nc3ccc(C)cc3)c(C)c(C#N)c2=S)C(OC(C)=O)C(OC(C)=O)C1OC(C)=O (configuration not stated)", "classification": "class 0"}
{"molecule": "CN(C)c1nc(S(C)(=O)=O)nc2nc(Cl)[nH]c12", "classification": "class 0"}
{"molecule": "CN(C)CC[N+]1=Nc2cccc3cccc(c23)N1", "classification": "class 0"}
{"molecule": "Cc1ccc(S(=O)(=O)N(CC(=O)c2ccccc2)c2ccc(Br)cc2)cc1", "classification": "class 0"}
{"molecule": "CC1(C)OC(CI)C(COS(C)(=O)=O)O1 (configuration not stated)", "classification": "class 0"}
{"molecule": "O=C(Cc1ccc([N+](=O)[O-])cc1)Nc1cccc(O)c1", "classification": "class 0"}
{"molecule": "O=C(O)CC1NC(/C(=C/c2ccccc2O)NC(=O)c2ccccc2)OC1=O (configuration not stated)", "classification": "class 0"}
{"molecule": "CCCCC(CC)OC(=O)c1ccccc1C (configuration not stated)", "classification": "class 0"}
{"molecule": "Cc1c(SC(Cl)(Cl)Cl)cc([N+](=O)[O-])c(N(C)C)c1[N+](=O)[O-]", "classification": "class 0"}
{"molecule": "CCc1ccc(NS(=O)(=O)c2ccc(OC)cc2)cc1", "classification": "class 0"}
{"molecule": "CC(C)CCC[C@@H](C)[C@H]1CC[C@H]2[C@@H]3CCC4=CC(=O)NCC[C@]4(C)[C@H]3CC[C@]12C", "classification": "class 0"}
{"molecule": "O=C(NCN1CCOCC1)NC(=O)NCN1CCOCC1", "classification": "class 0"}
{"molecule": "CCOC(=O)C1=CN=C2C(=O)N(c3ccccc3)N(C)C2(C)C1=N (configuration not stated)", "classification": "class 0"}
{"molecule": "CC(C)(C)NNC(=O)CCn1[nH]c(=O)c(Cl)c(Cl)c1=O", "classification": "class 0"}
{"molecule": "CC(C)Cc1c(C#N)c(C#N)c(N)n1Cc1ccccc1", "classification": "class 0"}
{"molecule": "CN1CCCC1CCN (configuration not stated)", "classification": "class 0"}
{"molecule": "Cc1ccc2c(ccc3nc(N)nc(N)c32)c1", "classification": "class 0"}
{"molecule": "CC(CCO)CCCO (configuration not stated)", "classification": "class 0"}
{"molecule": "O=[N+]([O-])c1cccc(/C=N/Nc2ccc(S(=O)(=O)O)cc2)c1", "classification": "class 0"}
{"molecule": "O=C1CN(c2cccc(C(F)(F)F)c2)C(=O)CN1/N=C/c1ccc[nH]1", "classification": "class 0"}
{"molecule": "CCN(CC)c1ccc2c(c1)C(=O)c1ccccc1-2", "classification": "class 0"}
{"molecule": "CC12OC3(C)C4CC1C1(C)OC4(C)C3C(O)C21 (configuration not stated)", "classification": "class 0"}
{"molecule": "Cc1c(C)c(C(=O)Cc2ccccc2)c(C)c(C(=O)Cc2ccccc2)c1C", "classification": "class 0"}
{"molecule": "CC(C)(C(N)C(=O)O)C(N)C(=O)O (configuration not stated)", "classification": "class 0"}
{"molecule": "Cc1ccc(NC(=O)ON(C)C)cc1", "classification": "class 0"}
{"molecule": "Cc1ccc(C)n1-n1c(Cc2ccc(Cl)cc2)n[nH]c1=O", "classification": "class 0"}
{"molecule": "CCN(CC)C(=S)Oc1ccc(OC(=S)N(CC)CC)cc1", "classification": "class 0"}
{"molecule": "CC1=C(c2ccccc2)OC(c2ccccc2)=C[P+]1(c1ccccc1)c1ccccc1", "classification": "class 1"}
{"molecule": "CCCCOC(c1ccccc1)c1ccccc1", "classification": "class 0"}
{"molecule": "CCCCCCCNC(=O)C(C)Br (configuration not stated)", "classification": "class 0"}
{"molecule": "CCCC(=O)CC(=O)Nc1ccccc1", "classification": "class 0"}
{"molecule": "Cc1nc2ccc(Br)cc2c(=O)n1-c1ccc(-c2n[nH]c(=S)n2-c2ccccc2)cc1", "classification": "class 0"}
{"molecule": "CN(C)/C(N)=N\\c1nc(O)cc(=O)[nH]1", "classification": "class 0"}
{"molecule": "NC1CC(c2ccccc2)NC(c2ccccc2)C1 (configuration not stated)", "classification": "class 0"}
{"molecule": "CC(=O)Nc1c(C)cc([N+](=O)[O-])c2ccccc12", "classification": "class 0"}
{"molecule": "CCOC(=O)CNC(=O)SCc1ccccc1", "classification": "class 0"}
{"molecule": "O=C(c1cccs1)N(C(=S)N1CCN(c2ccccc2)CC1)C1CCCCC1", "classification": "class 0"}
{"molecule": "C=CCS(=O)(=O)CC=C", "classification": "class 0"}
{"molecule": "Nc1nc(N)c(N=O)c(Nc2ccccc2)n1", "classification": "class 0"}
{"molecule": "Cc1cc2c(C(C)C)c(O)c(O)c(C=NC(C)c3ccccc3)c2c(O)c1-c1c(C)cc2c(C(C)C)c(O)c(O)c(C=NC(C)c3ccccc3)c2c1O (configuration not stated)", "classification": "class 0"}
{"molecule": "O=C(CC(=O)C(F)(F)F)c1ccccc1.O=C(CC(=O)C(F)(F)F)c1ccccc1.[Mn]", "classification": "class 0"}
